Provenance of the data: PubChem BioAssay (NCI)

# Test system: MALME-3M melanoma
# Assay details: NCI-60 one-dose screen, 48 h (100 = growth as untreated, 0 = no growth, -100 = all killed)
# Condition: 10 µM
About 83,000 compounds went through this panel and 20% of them were active in at least one assay; those are over-represented in the sample as a whole.
Label rule, in plain words: growth of -30% and up is rule met, under -30% is rule not met.

COc1ccc(-c2c(N)c(=O)n(C)c3ccccc23)cc1 : rule met
O=C(c1ccc(O)cc1)C1[C@H](c2ccccc2Br)[C@@H](c2ccccc2)NC12C(=O)Nc1ccc(Cl)cc12 (stereo partly specified) : rule met
O=C(c1ccc(O)cc1)C1[C@H](c2ccc(Br)cc2)[C@@H](c2ccccc2)NC12C(=O)Nc1ccccc12 (stereo partly specified) : rule met
O=C1Nc2ccc(Cl)cc2/C1=C/c1cccc(OCc2ccccc2)c1 : rule met

Okay, next one:
Is reported growth greater than or equal to -30% here: COc1cnc2c(c1)C(=O)c1c-2n(CCCNC(C)C)c(=O)c2cc(OC)c(OC)cc12
rule met
